# Tested system: T1, recombinant human CTLA-4 protein (human, UniProt P16410 36-161)
# T1 construct: Recombinant protein used as analyte in SPR/Octet; also called hCTLA-4; CD152
# T1 sequence (looked up): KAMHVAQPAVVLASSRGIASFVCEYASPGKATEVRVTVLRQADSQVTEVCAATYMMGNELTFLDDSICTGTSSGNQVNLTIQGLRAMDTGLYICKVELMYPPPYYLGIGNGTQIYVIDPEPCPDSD
# Test protocol: SPR (Pioneer FE) or Octet (Red96e), 37 C; IgG captured by anti-human Fc or AHC sensor, hCTLA-4 as analyte
For each of the binders below, state its pKd.
pKd here is simply -log10 of the concentration when that concentration is written in mol/L.

[Q] pKd for IgG antibody 78-24D1V HC / 78-24 LC (antibody, V domains shown) VH: EVQLVESGGGLVQPGGSLRLSCAASGFTFTSYSMHWVRQAPGKGLEWVSGISGSGRSTSYADSVKGRFTISRDNSKNTLYLQMNSLRAEDTAVYYCARDLMAFNLVRAGGFDVWGQGTLVTVSS VL: DIQMTQSPSSLSASVGDRVTITCQASQDISNYLNWYQQKPGKAPKLLIYDASNLETGVPSRFSGSGSGTDFTFTISSLQPEDIATYYCQQGDAWPWTFGQGTKVEIKR ?
[A] 8.82

[Q] Try this binder too: IgG antibody 78-8D22 HC / 78-8 LC (antibody, V domains shown) VH: EVQLVESGGGLVQPGGSLRLSCAASGFTFSSYVMHWVRQAPGKGLEWVSAISWSGSGTYYADSVKGRFTISRDNSKNTLYLQMNSLRAEDTAVYYCARGRLFGLARYGEAFDVWGQGTLVTVSS VL: DIQMTQSPSSLSASVGDRVTITCQASKDISNYLNWYQQKPGKAPKLLIYDASNLETGVPSRFSGSGSGTDFTFTISSLQPEDIATYYCQQFNSFPLTFGQGTKVEIKR
[A] 9.36

[Q] Try this binder too: IgG antibody 78-8D4 HC / 78-8 LC (antibody, V domains shown) VH: EVQLVESGGGLVQPGGSLRLSCAASGFTFSSYVMHWVRQAPGKGLEWVSAITWSGGGTYYADSVKGRFTISRDNSKNTLYLQMNSLRAEDTAVYYCARGRLFGLVRYGEAFDVWGQGTLVTVSS VL: DIQMTQSPSSLSASVGDRVTITCQASKDISNYLNWYQQKPGKAPKLLIYDASNLETGVPSRFSGSGSGTDFTFTISSLQPEDIATYYCQQFNSFPLTFGQGTKVEIKR
[A] 9.41

[Q] Try this binder too: IgG antibody 78-24D22V HC / 78-24 LC (antibody, V domains shown) VH: EVQLVESGGGLVQPGGSLRLSCAASGFTFPSYSMHWVRQAPGKGLEWVSGISGSGWSTSYADSVKGRFTISRDNSKNTLYLQMNSLRAEDTAVYYCARDLMAFNLVRAGGFDVWGQGTLVTVSS VL: DIQMTQSPSSLSASVGDRVTITCQASQDISNYLNWYQQKPGKAPKLLIYDASNLETGVPSRFSGSGSGTDFTFTISSLQPEDIATYYCQQGDAWPWTFGQGTKVEIKR
[A] 8.89

[Q] Try this binder too: IgG antibody 78-8D2 HC / 78-8 LC (antibody, V domains shown) VH: EVQLVESGGGLVQPGGSLRLSCAASGFTFSSYVMHWVRQAPGKGLEWVSAITWSGRGTYYADSVKGRFTISRDNSKNTLYLQMNSLRAEDTAVYYCARGRLFGLALYGEAFDVWGQGTLVTVSS VL: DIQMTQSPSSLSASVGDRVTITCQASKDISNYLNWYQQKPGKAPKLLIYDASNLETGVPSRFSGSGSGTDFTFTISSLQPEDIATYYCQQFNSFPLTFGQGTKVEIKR
[A] 9.17
